// data source = patent US20200317776A1

Target: T1, human TREM2 expressed on cells (human, UniProt Q9NZC2 19-230)
T1 construct: BW5147.G.1.4 cells stably expressing human TREM2 together with Dap12, or endogenous TREM2 of primary human myeloid cells; also called huT2 BW; hTREM2 expressing cell line
T1 sequence: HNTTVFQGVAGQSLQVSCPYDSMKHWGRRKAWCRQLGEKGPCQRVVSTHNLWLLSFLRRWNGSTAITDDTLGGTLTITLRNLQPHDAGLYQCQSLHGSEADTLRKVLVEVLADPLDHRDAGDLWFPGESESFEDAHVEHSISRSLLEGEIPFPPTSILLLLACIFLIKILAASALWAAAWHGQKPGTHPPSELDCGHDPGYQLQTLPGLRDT
Test: FACS, hTREM2 BW cells
What cell binding (FOB) was measured for each of the following?
The reply should be a number in FOB, with the unit left off.

Exercise: // query cell binding (FOB) value for entry AL2p-h27 (antibody, human IgG1, V domains shown, humanized, human IgG1; Fab and IgG formats under one id) VH: QVQLVQSGAEVKKPGASVKVSCKASGYAFSSSWMNWVRQAPGQGLEWIGRIYPGDGDTNYNGEFRVRATLTADTSTSTAYMELSSLRSEDTAVYFCARLLRNQPGESYAMDYWGQGTLVTVSS VL: DVVMTQTPLSLSVTPGQPASISCRSSQSLVHSNGYTYLHWYLQKPGQSPQLLIYKVSNRFSGVPDRFSGSGSGTDFTLKISRVEAEDLGVYFCSQSTRVPYTFGQGTKLEIK
Solution: 78

Exercise: // query cell binding (FOB) value for entry AL2p-h33 (antibody, human IgG1, V domains shown, humanized, human IgG1; Fab and IgG formats under one id) VH: QVQLVQSGAEVKKPGSSVKVSCKASGYAFSSSWMNWVRQAPGQGLEWIGRIYPGDGDTNYAQKFQGRATLTADTSTTTAYMELSSLRSEDTAVYFCARLLRNQPGESYAMDYWGQGTLVTVSS VL: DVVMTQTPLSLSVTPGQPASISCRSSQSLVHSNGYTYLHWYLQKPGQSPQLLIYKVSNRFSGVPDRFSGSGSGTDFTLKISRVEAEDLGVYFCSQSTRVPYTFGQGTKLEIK
Solution: 74

Exercise: // query cell binding (FOB) value for entry AL2p-h47 (antibody, human IgG1, V domains shown, humanized, human IgG1; Fab and IgG formats under one id) VH: QVQLVQSGAEVKKPGASVKVSCKASGYAFSSSWMNWVRQAPGQGLEWMGRIYPGDGDTNYNGEFRVRVTMTRDTSTSTVYMELSSLRSEDTAVYYCARLLRNQPGESYAMDYWGQGTLVTVSS VL: DVVMTQTPLSLSVTPGQPASISCRSSQSLVHSNGYTYLHWYLQKPGQSPQLLIYKVSNRFSGVPDRFSGSGSGTDFTLKISRVEAEDVGVYYCSQSTRVPYTFGQGTKLEIK
Solution: 93

Exercise: // query cell binding (FOB) value for entry AL2p-h25 (antibody, human IgG1, V domains shown, humanized, human IgG1; Fab and IgG formats under one id) VH: QVQLVQSGAEVKKPGASLKISCKASGYAFSSSWMNWVRQAPGQGLEWIGRIYPGDGDTNYNGEFRVRATLTADTSTSTAYMELSSLRSEDTAVYYCARLLRNQPGESYAMDYWGQGALVTVSS VL: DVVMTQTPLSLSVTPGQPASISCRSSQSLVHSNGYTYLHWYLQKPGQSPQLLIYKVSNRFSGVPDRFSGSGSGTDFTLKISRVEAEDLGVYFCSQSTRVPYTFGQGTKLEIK
Solution: 90

Exercise: // query cell binding (FOB) value for entry AL2p-h24 (antibody, human IgG1, V domains shown, humanized, human IgG1; Fab and IgG formats under one id) VH: QVQLVQSGAEVVKPGASLKISCKASGYAFSSSWMNWVRQAPGQGLEWIGRIYPGDGDTNYNQKFQGRATLTADTSTSTAYMELSSLRSEDTAVYFCARLLRNQPGESYAMDYWGQGALVTVSS VL: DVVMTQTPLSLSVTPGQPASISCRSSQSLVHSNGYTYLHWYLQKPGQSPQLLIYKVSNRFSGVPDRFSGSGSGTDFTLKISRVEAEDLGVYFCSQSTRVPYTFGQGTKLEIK
Solution: 69

Exercise: // query cell binding (FOB) value for entry AL2p-h35 (antibody, human IgG1, V domains shown, humanized, human IgG1; Fab and IgG formats under one id) VH: QVQLVQSGAEVKKPGSSVKVSCKASGYAFSSSWMNWVRQAPGQGLEWMGRIYPGDGDTNYAQKFQGRATITADTSTSTAYMELSSLRSEDTAVYYCARLLRNQPGESYAMDYWGQGTLVTVSS VL: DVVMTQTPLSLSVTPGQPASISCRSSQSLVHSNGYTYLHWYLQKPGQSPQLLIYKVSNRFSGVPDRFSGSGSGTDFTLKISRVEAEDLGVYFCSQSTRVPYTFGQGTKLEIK
Solution: 69

Exercise: // query cell binding (FOB) value for entry AL2p-h26 (antibody, human IgG1, V domains shown, humanized, human IgG1; Fab and IgG formats under one id) VH: QVQLVQSGAEVKKPGASVKVSCKASGYAFSSSWMNWVRQAPGQRLEWIGRIYPGDGDTNYAQKFQGRVTITADTSASTAYMELSSLRSEDTAVYYCARLLRNQPGESYAMDYWGQGTLVTVSS VL: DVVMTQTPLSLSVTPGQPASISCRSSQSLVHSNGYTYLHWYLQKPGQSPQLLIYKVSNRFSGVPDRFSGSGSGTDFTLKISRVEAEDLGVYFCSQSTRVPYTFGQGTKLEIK
Solution: 78

Exercise: // query cell binding (FOB) value for entry AL2p-h34 (antibody, human IgG1, V domains shown, humanized, human IgG1; Fab and IgG formats under one id) VH: QVQLVQSGAEVKKPGSSVKVSCKASGYAFSSSWMNWVRQAPGQGLEWIGRIYPGDGDTNYAQKFQGRATITADTSTSTAYMELSSLRSEDTAVYFCARLLRNQPGESYAMDYWGQGTLVTVSS VL: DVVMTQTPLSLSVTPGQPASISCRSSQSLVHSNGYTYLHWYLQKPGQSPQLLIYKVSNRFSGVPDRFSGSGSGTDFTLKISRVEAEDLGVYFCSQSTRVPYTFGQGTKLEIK
Solution: 84

Exercise: // query cell binding (FOB) value for entry AL2p-h30 (antibody, human IgG1, V domains shown, humanized, human IgG1; Fab and IgG formats under one id) VH: QVQLVQSGAEVKKPGASVKVSCKASGYAFSSSWMNWVRQAPGQGLEWMGRIYPGDGDTNYAQKFQGRVTMTADTSTSTAYMELSSLRSEDTAVYYCARLLRNQPGESYAMDYWGQGTLVTVSS VL: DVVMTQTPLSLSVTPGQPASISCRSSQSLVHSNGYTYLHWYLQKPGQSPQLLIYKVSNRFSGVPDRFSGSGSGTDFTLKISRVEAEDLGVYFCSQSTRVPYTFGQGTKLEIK
Solution: 88

Exercise: // query cell binding (FOB) value for entry AL2p-h44 (antibody, human IgG1, V domains shown, humanized, human IgG1; Fab and IgG formats under one id) VH: QVQLVQSGAEVKKPGASLKVSCKASGYAFSSSWMNWVRQAPGQRLEWIGRIYPGDGDTNYAQKFQGRATLTADTSASTAYMELSSLRSEDTAVYFCARLLRNQPGESYAMDYWGQGTLVTVSS VL: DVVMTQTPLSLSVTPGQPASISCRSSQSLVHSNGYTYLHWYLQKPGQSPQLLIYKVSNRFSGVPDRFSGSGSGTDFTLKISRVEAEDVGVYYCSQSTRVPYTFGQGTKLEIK
Solution: 80
